B1: HDV Ribozyme (parent)
chain: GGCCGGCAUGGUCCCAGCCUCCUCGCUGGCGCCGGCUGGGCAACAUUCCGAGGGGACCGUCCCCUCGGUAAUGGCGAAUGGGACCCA

variants of: B1; assay: self-cleavage, relative activity (ratio to wild type); higher = more cleavage; co-transcriptional
Each entry gets 0 (no) if its self-cleavage stays under 0.2, and 1 (yes) if its self-cleavage is 0.2 or above.

Task item: Quick check, self-cleavage >= 0.2? C4U A42C
Reply: 0 (no)

Task item: Could you please find out whether C63A A77U has self-cleavage that meets 0.2 or exceeds it?
Reply: 1 (yes)

Task item: Reported self-cleavage at or above 0.2? G25U C64U
Reply: 0 (no)

Task item: Form field: self-cleavage at least 0.2? Entry: C22U U69G
Reply: 1 (yes)

Task item: State whether the measured self-cleavage reaches 0.2, counting equality as reaching it, for G31U C33A
Reply: 0 (no)

Task item: Item G1U G2A with self-cleavage of 0.2 or above?
Reply: 1 (yes)

Task item: Hi, just wondering whether C58A C61A shows self-cleavage of 0.2 or higher.
Reply: 1 (yes)

Task item: Does the variant C3A G73U have recorded self-cleavage that is 0.2 or more?
Reply: 0 (no)

Task item: // inclusive: self-cleavage at least 0.2? input: C18A U79G
Reply: 0 (no)

Task item: Test whether the variant A70C U72G records self-cleavage of 0.2 or higher.
Reply: 0 (no)

Task item: Has A43G U65C a recorded self-cleavage greater than or equal to 0.2?
Reply: 1 (yes)

Task item: Reported self-cleavage reaches at least 0.2 for C62U U65A ?
Reply: 1 (yes)

Task item: Check this variant for self-cleavage at or above 0.2: G6A G74A
Reply: 0 (no)
